FSC: recorded values
Tested on: Canis familiaris
Assay: Activity against harris coronary ligation induced ventricular arrhythmia was measured as percent of final sinus complexes after dose 2 mg/kg iv
Format: functional, Canis lupus familiaris, Cardiac ventricle
assay.readout: FSC (%)

1. CNC(=O)Nc1c(OCCN2CCCC2)c(OC)c2occc2c1OC [CAROCAINIDE] | 75
2. COc1c(NC(C)=O)c(OCCN2CCCCCCC2)c(OC)c2occc12 | 17
3. CCNC(=O)Nc1c(OCCN2CCCCC2)c(OC)c2occc2c1OC | 90
4. COc1c(NC(=O)N(C)C)c(OCCN2CCCCC2)c(OC)c2occc12 | 52

----------
Species: Canis familiaris
Assay: Duration for the sinus rhythm recovery was measured
Type: functional, Canis lupus familiaris
Assign Criterion met whenever Duration does not fall below 60 min; assign Criterion not met whenever it does.

1) CNC(=O)Nc1c(OCCN2CCCCC2)c(OC)c2occc2c1OC [MUROCAINIDE] | Criterion met
2) CC(C)N(CCC(C(N)=O)(c1ccccc1)c1ccccn1)C(C)C (stereo unspecified) [DISOPYRAMIDE] | Criterion not met
3) CNC(=O)Nc1c(OC)c2c(c(OC)c1OCCN1CCCCC1)OCC2 | Criterion not met
4) CCCN(CCC)CCOc1c(NC(=O)NC)c(OC)c2ccoc2c1OC | Criterion not met
5) CNC(=O)Nc1c(OCCCN2CCCC2)c(OC)c2occc2c1OC | Criterion met
6) CNC(=O)Nc1c(OCCCCN2CCCCC2)c(OC)c2occc2c1OC | Criterion not met
7) CNC(=O)Nc1c(OCCN(C)C)c(OC)c2occc2c1OC | Criterion not met
8) CCN(CC)CCOc1c(NC(=O)NC)c(OC)c2ccoc2c1OC | Criterion met
9) COc1c(NC(C)=O)c(OCCNC(C)C)c(OC)c2occc12 | Criterion not met
10) COc1c(NC(=O)OC(C)C)c(OCCN2CCCCC2)c(OC)c2occc12 | Criterion met
11) CCNC(=O)Nc1c(OCCN2CCCCC2)c(OC)c2occc2c1OC | Criterion met
12) CNC(=O)Nc1c(OCCCN2CCCCC2)c(OC)c2occc2c1OC | Criterion met
13) CNC(=O)Nc1c(OCCN2CCC2)c(OC)c2occc2c1OC | Criterion not met
14) CNC(=O)Nc1c(OC(C)CN2CCCCC2)c(OC)c2occc2c1OC (stereo unspecified) | Criterion not met
15) CNC(=O)Nc1c(OCCN2CCCCCC2)c(OC)c2occc2c1OC | Criterion met
16) CNC(=O)N(C)c1c(OCCN2CCCCC2)c(OC)c2occc2c1OC | Criterion not met
17) CNC(=O)Nc1c(OCCNC(C)C)c(OC)c2occc2c1OC | Criterion not met
18) CCN(CC)CCCOc1c(NC(=O)NC)c(OC)c2ccoc2c1OC | Criterion not met
19) CNC(=O)Nc1c(OCCN2CCCC2)c(OC)c2occc2c1OC [CAROCAINIDE] | Criterion met
20) COc1c(NC(C)=O)c(OCCN2CCN(C)CC2)c(OC)c2occc12 | Criterion not met
21) CNC(=O)Nc1c(OCCN2CCN(C)CC2)c(OC)c2occc2c1OC | Criterion met
22) CNC(=O)Nc1c(OCCNC2CCCCC2)c(OC)c2occc2c1OC | Criterion met
23) COc1c(NC(C)=O)c(OCCNC2CCCCC2)c(OC)c2occc12 | Criterion not met
24) COc1c(NC(C)=O)c(OCCN2CCCC2)c(OC)c2occc12 | Criterion not met
25) CNC(=O)Nc1c(OCCN2CCCCCCC2)c(OC)c2occc2c1OC | Criterion not met
26) COc1c(NC=O)c(OCCN2CCCCC2)c(OC)c2occc12 | Criterion not met
